Sourced from PubChem BioAssay (NCI)

Experiment: NCI Yeast Anticancer Drug Screen. Data for the CLN2oe strain (AID 163);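 further: 0% = growth of vehicle-only control cultures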
Conditions: S. cerevisiae CLN2oe strain, at 1.2 µM, stronger effect = higher value
About 79,000 compounds went through this panel and 15% of them were active in at least one assay; those are over-represented in the sample as a whole.
Measured growth inhibition of individual entries
PROPERTY: growth inhibition (%)

MOLECULE: COc1ccc2cc(CN3CCC(C4CCN(Cc5ccc6cc(OC)ccc6c5)CC4)CC3)ccc2c1
NUMERIC READOUT: 16
//
MOLECULE: CN(C)CCn1c2ccccc2c2nc3cc4ccccc4cc3nc21
NUMERIC READOUT: 0
//
MOLECULE: Cc1ccc2c(/C=C/c3ccc(N(C)C)cc3)ccnc2c1C
NUMERIC READOUT: 26
//
MOLECULE: C=Cc1c(C)c(O)cc2c1-c1ccc(O)c(C)c1CC2
NUMERIC READOUT: 10
//
MOLECULE: CCN(CC)c1cccc(Nc2nc3ccccc3s2)c1
NUMERIC READOUT: -3
//
MOLECULE: Cc1ccc(C(C)C)c(C(=C2C=CC(=[N+](C)C)C=C2)c2c(C(C)C)ccc(C)c2O)c1O
NUMERIC READOUT: 2
//
MOLECULE: COc1ccc(CCN2C(=O)C=CC2=O)cc1OC
NUMERIC READOUT: 17
//
MOLECULE: S=c1[nH]nc(Cc2ccccc2)c(=S)[nH]1
NUMERIC READOUT: 26
//
MOLECULE: O=C1C=CC(=Nc2ccc3c(c2)Cc2cc(Cl)ccc2-3)O1
NUMERIC READOUT: -1
//
MOLECULE: [O-]c1c2cc(-[n+]3c(-c4ccccc4)cc(-c4ccccc4)cc3-c3ccccc3)cc1COCCOCCOCCOCCOC2
NUMERIC READOUT: -6
//
MOLECULE: COc1ccc(C(=O)OCCc2ccccc2)cc1
NUMERIC READOUT: -3
//
MOLECULE: NNc1nnc(-c2ccccc2)nc1Cc1ccccc1
NUMERIC READOUT: 25
//
MOLECULE: CCCCOc1ccc(Nc2c3ccccc3nc3ccccc23)cc1
NUMERIC READOUT: -26
//
MOLECULE: Cc1nc2ccc(Br)cc2c(=O)n1-c1ccc(NC2OCC(O)C(O)C2O)cc1 (stereo unspecified)
NUMERIC READOUT: 5
//
MOLECULE: COc1ccc(C(=O)NCCN(C)C)c2nc3ccccc3cc12
NUMERIC READOUT: 29
//
MOLECULE: O=c1oc(C(C(F)(F)F)C(F)(F)F)nc2ccccc12
NUMERIC READOUT: 18
//
MOLECULE: Cc1ccc(N(C=O)c2c([N+](=O)[O-])cc([N+](=O)[O-])c3c2=[N+]([O-])CN=3)cc1
NUMERIC READOUT: -3
//
MOLECULE: COc1cc(C(C)C(C(=O)O)C(=O)C(=O)O)cc(OC)c1OC (stereo unspecified)
NUMERIC READOUT: 2
//
MOLECULE: O=C(O)/C=C\C(=O)NNc1ccc(Br)cc1
NUMERIC READOUT: -6
//
MOLECULE: N=C(N)c1ccc(N=Nc2c(O)ccc3c2[nH]c2ccccc23)cc1
NUMERIC READOUT: -3
//
MOLECULE: CC(=O)CC[N+](C)(C)C
NUMERIC READOUT: 17
//
MOLECULE: Cc1ccc(SSc2ccc(C)cc2[N+](=O)[O-])c([N+](=O)[O-])c1
NUMERIC READOUT: -11
//
MOLECULE: CC(=O)O/N=C/c1c2ccccc2cc2ccccc12
NUMERIC READOUT: -10
//
MOLECULE: CC[C@@]1(OC(=O)CN(C)C)C(=O)OCc2c1cc1n(c2=O)Cc2cc3ccccc3nc2-1
NUMERIC READOUT: -7
//
MOLECULE: CN(C)CCNC(=O)c1cccc2nc3c4ccccc4c4ccccc4c3nc12
NUMERIC READOUT: 0
//
MOLECULE: CC(C)(C(=O)NN)c1ccccc1
NUMERIC READOUT: -7
//
MOLECULE: CNc1ccc2[nH]c3ccccc3c2c1
NUMERIC READOUT: -6
//
MOLECULE: c1cc(Nc2ccc3c(c2)OCO3)c2cc(C3CCCCC3)ccc2n1
NUMERIC READOUT: 1
//
MOLECULE: COc1cc(C(C)(C)C)cc(OC)c1C(O)(c1c(OC)cc(C(C)(C)C)cc1OC)c1c(OC)cc(C(C)(C)C)cc1OC
NUMERIC READOUT: 31
//
MOLECULE: C#CC1=CC(=O)C(OC)=CC1=O
NUMERIC READOUT: 2
//
MOLECULE: CC(O)CN1C(=O)c2cccc3cc([N+](=O)[O-])cc(c23)C1=O (stereo unspecified)
NUMERIC READOUT: 20
//
MOLECULE: CC[N+]1(C)CCC(O)(/C=C/c2ccc(Cl)c(Cl)c2)C(C(=O)/C=C/c2ccc(Cl)c(Cl)c2)C1 (stereo unspecified)
NUMERIC READOUT: -8
//
MOLECULE: COC(=O)C1(N2CCOCC2)CCC([C@@H](c2ccccc2)C(C)[N+](=O)[O-])C1 (stereo partly specified)
NUMERIC READOUT: -9
//
MOLECULE: Oc1ccc(Cc2nccc3cc(O)c(O)cc23)cc1O
NUMERIC READOUT: 14
//
MOLECULE: O=C1C=CC(=O)N1c1ccc(Br)cc1Cl
NUMERIC READOUT: 63
//
MOLECULE: Cc1ccccc1C1=C(CC(=O)O)c2ccccc2CC1C (stereo unspecified)
NUMERIC READOUT: 10
//
MOLECULE: Cc1ccc2oc(-c3cccc(N)c3)nc2c1
NUMERIC READOUT: -5
//
MOLECULE: Cc1ccc(Cl)c2c(=O)c3ccccc3[nH]c12
NUMERIC READOUT: -4
//
MOLECULE: Cn1c(COc2ccc(/C=N/NC(=O)CCC(=O)N/N=C/c3ccc(OCc4c[n+]5ccccc5n4C)cc3)cc2)c[n+]2ccccc12
NUMERIC READOUT: -5
//
MOLECULE: CCOc1ccccc1N1C(=O)CC(Sc2ccccc2N)C1=O (stereo unspecified)
NUMERIC READOUT: 10
//
MOLECULE: CCOC(=O)c1sc2[n+](c1C)C(=O)/C(=C/c1cc(OC)c(OC)c(OC)c1)S2
NUMERIC READOUT: 11
//
MOLECULE: Clc1ccc(C(c2ccc(Cl)cc2)N2CCNCC2)cc1
NUMERIC READOUT: -1
//
MOLECULE: O=C1C(Br)=CC(Br)(Br)C=C1Br
NUMERIC READOUT: 24
//
MOLECULE: Nc1ccc2ncc(Nc3ccc(Cl)c(Cl)c3)nc2c1
NUMERIC READOUT: -17
//
MOLECULE: Cc1ccc(P(c2ccc(C)cc2)c2ccc(C)cc2)cc1
NUMERIC READOUT: 8
//
MOLECULE: OC(c1ccc(Br)cc1)(c1cccs1)C1CC1 (stereo unspecified)
NUMERIC READOUT: 6
